- target_system: H1047R PIK3CA enzyme (Homo sapiens, UniProt P42336, H1047R)
- Sequence (P42336 whole entry H1047R): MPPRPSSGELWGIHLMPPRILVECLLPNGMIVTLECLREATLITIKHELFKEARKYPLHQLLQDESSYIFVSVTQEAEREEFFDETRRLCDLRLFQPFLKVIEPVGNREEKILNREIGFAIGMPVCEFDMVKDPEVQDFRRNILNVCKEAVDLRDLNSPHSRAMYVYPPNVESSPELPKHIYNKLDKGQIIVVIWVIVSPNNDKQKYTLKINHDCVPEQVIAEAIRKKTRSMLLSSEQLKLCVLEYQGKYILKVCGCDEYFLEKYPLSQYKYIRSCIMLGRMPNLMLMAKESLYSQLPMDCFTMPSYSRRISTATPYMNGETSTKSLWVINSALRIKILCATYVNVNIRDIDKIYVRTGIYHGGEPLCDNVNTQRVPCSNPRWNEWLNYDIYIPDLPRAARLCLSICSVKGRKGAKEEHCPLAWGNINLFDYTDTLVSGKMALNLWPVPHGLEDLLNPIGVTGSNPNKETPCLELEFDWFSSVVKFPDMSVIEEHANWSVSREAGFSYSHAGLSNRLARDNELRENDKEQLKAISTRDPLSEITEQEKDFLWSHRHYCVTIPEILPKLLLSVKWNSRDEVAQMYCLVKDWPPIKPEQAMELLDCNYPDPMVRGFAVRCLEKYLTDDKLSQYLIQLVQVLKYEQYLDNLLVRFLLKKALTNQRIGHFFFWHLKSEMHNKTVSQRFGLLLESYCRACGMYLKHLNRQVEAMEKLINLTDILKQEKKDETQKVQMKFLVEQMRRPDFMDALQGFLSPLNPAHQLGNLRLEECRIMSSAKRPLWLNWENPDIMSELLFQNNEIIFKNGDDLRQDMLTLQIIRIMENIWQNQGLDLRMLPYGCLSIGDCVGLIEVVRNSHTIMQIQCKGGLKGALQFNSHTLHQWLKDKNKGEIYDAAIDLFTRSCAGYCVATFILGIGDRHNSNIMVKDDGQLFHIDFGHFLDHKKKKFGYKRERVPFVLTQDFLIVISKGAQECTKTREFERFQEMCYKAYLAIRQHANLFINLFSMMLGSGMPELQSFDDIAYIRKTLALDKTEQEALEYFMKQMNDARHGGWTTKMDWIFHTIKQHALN
- Sequence (P27986 whole entry partner): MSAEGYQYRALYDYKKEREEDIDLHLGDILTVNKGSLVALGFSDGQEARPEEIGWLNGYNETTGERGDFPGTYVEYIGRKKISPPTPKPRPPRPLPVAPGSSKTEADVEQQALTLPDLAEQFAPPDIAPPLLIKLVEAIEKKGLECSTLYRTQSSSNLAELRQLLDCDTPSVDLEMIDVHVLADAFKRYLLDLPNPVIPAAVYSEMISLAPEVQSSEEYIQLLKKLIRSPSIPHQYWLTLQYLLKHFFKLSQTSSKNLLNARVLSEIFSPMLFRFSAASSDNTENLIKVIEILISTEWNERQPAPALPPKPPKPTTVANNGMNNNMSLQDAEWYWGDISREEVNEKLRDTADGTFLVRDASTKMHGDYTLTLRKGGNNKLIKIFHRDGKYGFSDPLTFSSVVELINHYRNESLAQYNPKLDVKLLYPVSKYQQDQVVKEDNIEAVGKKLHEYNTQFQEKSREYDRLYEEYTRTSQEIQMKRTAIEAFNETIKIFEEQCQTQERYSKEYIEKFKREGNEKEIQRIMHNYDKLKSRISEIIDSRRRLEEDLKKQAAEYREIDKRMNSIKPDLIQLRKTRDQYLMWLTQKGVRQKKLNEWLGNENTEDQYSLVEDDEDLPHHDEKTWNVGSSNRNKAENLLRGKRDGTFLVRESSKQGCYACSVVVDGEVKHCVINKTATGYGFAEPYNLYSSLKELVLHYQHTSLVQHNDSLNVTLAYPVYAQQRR
- test_summary: ADP-Glo Biochemical PIK3CA Kinase Assay
pIC50: −log10 of the molar value.
Recorded pIC50, one value per entry.

Example compounds with recorded pIC50:
>  <compound>
O=C(Nc1cc(-c2cnc(N3CCOCC3)nc2)cc2c1C(c1cc(F)ccc1Cl)NC2=O)c1cc(F)cc(C(F)(F)F)c1 (stereo not drawn)

>  <pIC50>
≥ 7.00

$$$$
>  <compound>
O=C(Nc1cccc2c1C(C(=O)NC1CCCCC1)NC2=O)c1cc(F)cc(C(F)(F)F)c1 (stereo not drawn)

>  <pIC50>
4.00 to 5.00

$$$$
>  <compound>
Cc1nc(Nc2cc(NC(=O)c3cc(F)cc(C(F)(F)F)c3)c3c(c2)C(=O)NC3c2cc(F)ccc2Cl)oc1C (stereo not drawn)

>  <pIC50>
≥ 7.00

$$$$
>  <compound>
O=C(Nc1cc(C2(O)COC2)cc2c1C(c1cc(F)ccc1Cl)NC2=O)c1cc(F)cc(C(F)(F)F)c1 (stereo not drawn)

>  <pIC50>
≥ 7.00

$$$$
>  <compound>
O=C1N[C@H](c2cc(F)ccc2Cl)c2c(NC(=O)N3C[C@](O)(C(F)(F)F)c4cc(F)ccc43)ccc(-n3nccn3)c21 (single isomer, unassigned)

>  <pIC50>
5.00 to 6.00

$$$$

We now examine a further compound.
The compound `O=C(Nc1cc(-n2cccn2)cc2c1[C@H](c1cc(F)ccc1Cl)NC2=O)c1cc(F)cc(C(F)(F)F)c1` showed pIC50 equal to ≥ 7.00

====

- target_system: H1047R PIK3CA enzyme (Homo sapiens, UniProt P42336, H1047R)
- test_summary: ADP-Glo Biochemical PIK3CA Kinase Assay
- Protocol: Compounds to be assayed were plated in 16 doses of 1:2 serial dilutions (20 nL volume each well) on a 1536-well plate, and the plate warmed to room temperature. […] To the well was added 1 μL of 200 μM ATP and 20 μM of diC8-PIP2 in Substrate Assay Buffer (50 mM HEPES pH7.4, 50 mM NaCl, 5 mM DTT and 0.03% CHAPS) to start the reaction, and the plate was shaken for 10 seconds, then spun briefly at 1500 rpm, and then incubated for 60 minutes at room temperature. […]
quantity: IC50

Solved cases (3 shown):
>  <compound>
CNC(=O)c1cc(-c2ccc3ncnn3c2)cc2c1C(c1cc(F)ccc1Cl)NC2=O (stereo not shown)

>  <test_result>
10000 to 100000 nM

$$$$
>  <compound>
O=C(Nc1cc(C#Cc2ccn[nH]2)cc2c1C(c1cc(F)ccc1Cl)NC2=O)c1cc(F)cc(C(F)(F)F)c1 (stereo not shown)

>  <test_result>
≤ 100 nM

$$$$
>  <compound>
CC(C)(O)c1cc(NC(=O)c2cc(F)cc(C(F)(F)F)c2)c2c(c1)C(=O)N[C@H]2c1cc(F)ccc1Cl

>  <test_result>
≤ 100 nM

$$$$

[2H][C@]1(c2cc(F)ccc2Cl)NC(=O)c2cccc(NC(=O)N3C[C@](O)(C(F)(F)F)c4cc(F)ccc43)c21 (single isomer, unassigned) yielded IC50 of 10000 to 100000 nM

Consider COC(=O)c1cc(NC(=O)c2nsc3ccccc23)c2c(c1)C(=O)NC2c1ccccc1C (stereo not shown) . Its measured IC50 is 500 to 1000 nM

What the record says about Cc1ccccc1[C@H]1NC(=O)c2nccc(NC(=O)N3C[C@@H](C)c4ccccc43)c21 (single isomer, unassigned) : IC50 is 500 to 1000 nM

Consider O=C1NC(c2ccc(F)cc2Cl)c2c(NC(=O)c3csc4ccccc34)cccc21 (stereo not shown) . Its measured IC50 is ≤ 100 nM

Source listed as patent US12581252B2.
